Taken from ChEMBL document CHEMBL1201861.

- System: NCI-H1693;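 further: growth inhibition of the human cell line, read out with a cell viability assay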
- TEST: cells
- Format: functional, cell-based, Homo sapiens
- EXPERIMENTAL CONDITIONS: Homo sapiens, NCI-H1693
- Description: SANGER: Inhibition of human NCI-H1693 cell growth in a cell viability assay.
pIC50: −log10 of the molar value.
REPORTED PROPERTY: pIC50

Examples with their reported pIC50 follow.
>>> data_value("COc1cc2c(Nc3ccc(NC(=O)c4ccccc4)cc3)ncnc2cc1OCCCN1CCOCC1")
"< 5.40"
>>> data_value("N#Cc1c(O)c2c(-c3ccc(-c4ccccc4O)cc3)csc2[nH]c1=O")
"< 5.99"
>>> data_value("O=C(O)c1ccc(-c2c[nH]c3ncc(-c4ccccc4)cc23)cc1C1CCCC1")
"< 4.80"

Alright, here's another compound for you.
NCI-H1693 data for CC1(C)CNc2cc(NC(=O)c3cccnc3NCc3ccncc3)ccc21 ; its pIC50: < 5.70

* * *

- Test system: BXPC-3;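 further: growth inhibition of human BxPC-3 cells, read out by a cell viability assay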
- TEST: cells
- Type: functional, cell-based, Homo sapiens
- EXPERIMENTAL CONDITIONS: Homo sapiens, BXPC-3
- Description: SANGER: Inhibition of human BxPC-3 cell growth in a cell viability assay.
Let's look at some compounds and their measured IC50.

Quick note, IC50 for N#Cc1c(O)c2c(-c3ccc(-c4ccccc4O)cc3)csc2[nH]c1=O landed at > 1.02 µM

Lookup result for CCC/C=C/C=C/C(=O)O[C@H]1/C(=C/C(=O)OC)C[C@H]2C[C@H]([C@@H](C)O)OC(=O)C[C@H](O)C[C@@H]3C[C@H](OC(C)=O)C(C)(C)[C@](O)(C[C@@H]4C/C(=C/C(=O)OC)C[C@H](/C=C/C(C)(C)[C@]1(O)O2)O4)O3 ; measured IC50: > 0.008 µM

Sample C=C(c1ccc(C(=O)O)cc1)c1cc2c(cc1C)C(C)(C)CCC2(C)C ; IC50 observed: > 8 µM

compound CN(C)C(=N)NC(=N)N , IC50 observed: > 20000 µM

* * *

- System: D-392MG
- TEST: cells
- Format: functional, cell-based, Homo sapiens
- EXPERIMENTAL CONDITIONS: Homo sapiens, D-392MG
pIC50: −log10 of the molar value.
# maps each entry to its pIC50

Some compounds with recorded pIC50:
>>> data_value("Cn1cnc2c(F)c(Nc3ccc(Br)cc3Cl)c(C(=O)NOCCO)cc21")
"< 5.40"
>>> data_value("CC[C@H](CO)Nc1nc(NCc2ccccc2)c2ncn(C(C)C)c2n1")
"< 4.80"

Consider the additional compound presented here.
Entry under test: CC(C)CCN1c2nc(Nc3cc(F)c(O)c(F)c3)ncc2N(C)C(=O)C1C (stereo not drawn) . Its pIC50 was < 5.30

* * *

- System: LB831-BLC
- TEST: cells
- Type: functional, cell-based, Homo sapiens
- EXPERIMENTAL CONDITIONS: Homo sapiens, LB831-BLC
- Description: SANGER: Inhibition of human LB831-BLC cell growth in a cell viability assay.
REPORTED PROPERTY: IC50

Record excerpt, results attached:
>>> data_value("O=C(O)c1ccc(-c2c[nH]c3ncc(-c4ccccc4)cc23)cc1C1CCCC1")
"> 16 µM"
>>> data_value("COc1cc2c(Nc3ccc(NC(=O)c4ccccc4)cc3)ncnc2cc1OCCCN1CCOCC1")
"> 4 µM"

Next compound, IC50 to be filled in.
Cc1cn(-c2cc(NC(=O)c3ccc(C)c(Nc4nccc(-c5cccnc5)n4)c3)cc(C(F)(F)F)c2)cn1 yielded IC50 of > 2 µM
